- Test system: Micrococcus flavus
- METHOD_NOTES: Bactericidal activity against Micrococcus flavus ATCC 10240 incubated for 24 hrs followed by re-plating on tryptic soy broth
- Format: functional
- PARTICULARS: ATCC 10240, 24 h
Assign labels as follows, please: MET for MBC below 100 µM; NOT MET for MBC equal to or exceeding 100 µM.

# count of solved cases: 4
CC1(C)S[C@@H]2[C@H](NC(=O)[C@H](N)c3ccccc3)C(=O)N2[C@H]1C(=O)O: NOT MET
CCOc1ccc2c(c1)-c1c(ssc1=S)C(C)(C)N2C(=O)c1ccc(Cl)c([N+](=O)[O-])c1: MET
COc1cc2c(c([N+](=O)[O-])c1)NC(C)(C)c1ssc(=S)c1-2: NOT MET
CC1(C)c2ssc(=S)c2-c2ccccc2N1C(=O)CN1C(=O)CCC1=O: MET

Now look at this entry.
Please indicate whether the reported MBC of COc1cc2c3c(c1)-c1c(ssc1=S)C(C)(C)N3C(=O)/C2=C1\SC(=S)NC1=O is strictly below 100 µM. NOT MET
